Tested on: U-251
Test: NCI tumour cell line growth inhibition, 48 h
Active and inactive are the calls of the source. No stated cut-off is given here; in the data, active = GI50 up to about 1.1 µM and inactive = higher.
Consider the following compounds; for each one, report its GI50.

Form: compound = C[C@@H]1CCC2[C@@H](C)[C@@H](O[C@H]3O[C@@H]4O[C@@]5(C)CCC6[C@H](C)CCC([C@H]3C)[C@]64OO5)O[C@@H]3O[C@@]4(C)CCC1[C@@]23OO4 (stereo partly drawn) ; GI50 = > 25 µM (inactive)

Form field GI50, entry CC1=NN2C=Nc3c(c(-c4ccc(Cl)cc4)cn3-c3ccc(C)cc3)C2N1 (stereo not drawn) : 76.2 µM (inactive)

Just so you know, measured GI50 for N#CC(C#N)/N=N/c1ccc(-c2nc3ccccc3[nH]2)cc1 came out at 28.1 µM (inactive)

GI50 in this record for O=C(O)CNc1ncc2c(n1)-c1ccccc1OC2 : > 100 µM (inactive)

For this compound ( COc1ccc(OC)c(SC(CC(=O)c2ccccc2)c2ccccc2)c1 (stereo not drawn) ), measured GI50 is 10.2 µM (inactive)

Sure, the documented GI50 for Cc1cc(O)c(C=O)c2c1C(=O)Oc1c(CO)c(O)c3c(c1O2)C(O)OC3=O (stereo not drawn) is 60.5 µM (inactive)

Lab note: CC(C)N1CC2CN(Cc3ccccc3)CC(C1)C2=O gave GI50 of > 100 µM (inactive)

# GI50 (compound: CC1OC(OC2C(O)COC(OC3C(C)OC(OC4C(OC(=O)[C@]56CCC(C)(C)C[C@@H]5C5=CCC7[C@@]8(C)C[C@H](O)[C@H](OC9OC(CO)C(O)C(O)C9O)[C@@](C)(CO)[C@@H]8CC[C@@]7(C)[C@]5(C)CC6)OCC(O)C4O)C(O)C3OC3OCC(O)C(O)C3O)C2O)C(O)C(O)C1O (stereo partly drawn) ) is 20 µM (inactive)

----------
Tested on: MDA-MB-435
Test: NCI tumour cell line growth inhibition, 48 h
Calls of active or inactive are those of the source. Cut-off read from the data, not from the text of the source: active = GI50 up to about 1.1 µM and inactive = higher.
test_readout: GI50

Consider Cc1ccc(S(=O)(=O)N2CCNCCN(S(=O)(=O)c3ccc(C)cc3)CCNCC2)cc1 . Its measured GI50 is 18.1 µM (inactive)

The reported GI50 of the compound COc1ccc(NC(=S)NC(=O)c2ccc3c(c2)Sc2ccccc2O3)c([N+](=O)[O-])c1 was 55.8 µM (inactive)

Lookup result for O=C1C=Cc2c1csc2Br ; measured GI50: 32.1 µM (inactive)

Reported GI50 ( Cn1c2ccccc2c(=O)c2cccc(C(=O)NC(CCC(N)=O)C(=O)O)c21 (stereo unspecified) ) = > 100 µM (inactive)

Reported GI50 of O=c1oc2ccc(Cl)cc2cc1-c1cn2ccsc2n1 : 40.8 µM (inactive)

GI50 reported for this compound O=C(O)CNc1ncc2c(n1)-c1ccccc1OC2 : > 100 µM (inactive)

GET /value?item= OC1(c2ccccc2)CC2CCC(C1)N2CCc1ccccc1 (stereo unspecified) &field=GI50 returns 55.5 µM (inactive)

The compound identified as CN(C)CCNC(=O)c1cccc2ccc(-c3ccc(O)cc3)nc12 registered its GI50 at 3.74 µM (inactive)

get_value(item= COc1nc2cccc(C(O)c3ccccc3)c2nc1-c1ccccc1 (stereo unspecified) , readout=GI50) returns 1.78 µM (inactive)

Value of GI50 reported for the compound COc1cccc2c1CCc1sc(CN3CCN(C)CC3)nc1-2 is 63.5 µM (inactive)

Item: CC(C)(C)[Si](C)(C)OCC1OC(n2cnc3c(N)ncnc32)CC1OS(C)(=O)=O (stereo unspecified) | GI50: > 100 µM (inactive)
